# assay.info: chemical genetic growth profiling, strain panel (AID 1159580);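 note: tested at 20 µM; growth read once vehicle control cultures reached saturation at 30 °C; 1 = growth at the plate median or of vehicle wells; lower values mean less growth of the strain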
# test.conditions: S. cerevisiae deletion strains, growth OD, locus YMR223W, strain ubp8, active compounds read low
Screen size: about 5,500 compounds; about 2,000 (36%) were called active. About 18% were inconclusive and are not listed. The list shows a part of the results.
Some compounds, each annotated with its measured normalized growth.
readout: normalized growth

compound	recorded.measurement
CC(CC(O)C1OC1(C)C)[C@@H]1CCC2(C)C3=CCC4C(C)(C)C(=O)CCC4(C)C3CC[C@@]12C (stereo partly specified)	1.03
CC(C)(C)NCC(O)c1cc(O)cc(O)c1 (stereo unspecified)	1.02
CCCCCCC(C)OC(=O)COc1ccc(Cl)cc1Cl (stereo unspecified)	0.989
COc1ccc2ccc(=O)oc2c1	1.02
CCC/C=C1\OC(=O)C2=C1CCC=C2	0.979
COc1ccccc1/C=C\C(=O)O	1.03
CC(C1OC(C)(C)C(O)C1O)[C@@H]1CC[C@]2(C)C3=CCC4C(C)(C)C(=O)CC[C@]4(C)C3CC[C@@]12C (stereo partly specified)	0.987
O=C1C=C2C(=CCOC2O)O1 (stereo unspecified)	0.801
COc1ccc(-c2oc3c(CC=C(C)C)c(O[C@@H]4O[C@H](CO)[C@@H](O)[C@H](O)[C@H]4O)cc(O)c3c(=O)c2O[C@@H]2O[C@@H](C)[C@H](O)[C@@H](O)[C@H]2O)cc1	0.979
COc1ccc(-c2cc(=O)c3c(O)cc(O[C@H]4O[C@H](CO[C@@H]5O[C@@H](C)[C@H](O)[C@@H](O)[C@H]5O)[C@@H](O)[C@H](O)[C@H]4O)cc3o2)cc1	1.01
CC(=O)OC1CN2CCC1CC2 (stereo unspecified)	0.995

###

# assay.info: chemical genetic growth profiling, strain panel (AID 1159580);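 note: tested at 20 µM; growth read once vehicle control cultures reached saturation at 30 °C; 1 = growth at the plate median or of vehicle wells; lower values mean less growth of the strain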
# test.conditions: S. cerevisiae deletion strains, growth OD, locus YPL240C, strain hsp82, active compounds read low
In all, about 5,500 compounds went through this assay and about 2,000 (36%) were called active. Inconclusive results (about 18%) are left out. The list shows a part of the results.
List of normalized growth values.

compound	normalized growth
COc1cc(OC)c2ccc(=O)oc2c1	0.985
CCN(Cc1ccncc1)C(=O)C(CO)c1ccccc1 (stereo not given)	1.03
C[C@]12CCC3c4ccc(O)cc4CCC3C1C[C@@H](O)[C@@H]2O (stereo not given in full)	1.03
O=c1ccc2c(O)c3ccoc3cc2o1	0.983
O=C(OC1Cc2c(O)cc(O)cc2OC1c1cc(=O)c(O)c2c(O)c(O)cc(C3Oc4cc(O)cc(O)c4CC3O)c2c1)c1cc(O)c(O)c(O)c1 (stereo not given)	0.97
Cc1cc(C2CCCCC2)n(O)c(=O)c1	0.0653
COc1c2ccoc2cc2oc(=O)ccc12	0.973
COc1ccc2ccc(=O)oc2c1	0.995
COC1=CC(=O)C(O)=C/C1=C\C=C\c1ccccc1	0.0581
O=C(O[C@@H]1Cc2c(O)cc(O)cc2O[C@@H]1c1cc(O)c(=O)c2c(O)c(O)cc([C@H]3Oc4cc(O)cc(O)c4C[C@H]3OC(=O)c3cc(O)c(O)c(O)c3)c2c1)c1cc(O)c(O)c(O)c1	0.679

###

In this section, each of the molecules is paired with its reported normalized growth.
# assay.info: chemical genetic growth profiling, strain panel (AID 1159580);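 note: tested at 20 µM; growth read once vehicle control cultures reached saturation at 30 °C; 1 = growth at the plate median or of vehicle wells; lower values mean less growth of the strain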
# test.conditions: S. cerevisiae deletion strains, growth OD, locus YDR392W, strain spt3, active compounds read low
Screen size: about 5,500 compounds; about 2,000 (36%) were called active. About 18% were inconclusive and are not listed. This is one part of the list.

molecule	normalized growth
Cc1[nH]ccc2c1[nH]c1cc(=O)ccc12	0.96
COc1cc(OC)c2ccc(=O)oc2c1	0.736
CC[n+]1c(-c2ccccc2)c2cc(N)ccc2c2ccc(N)cc21	0.965
CNC(=O)Oc1cccc2c1OC(C)(C)O2	0.814
CC(C)c1c(O)c(-c2cc3c(c(C(C)C)c2O)CCC2C(C)(C)CCC[C@]32C)cc2c1CCC1C(C)(C)CCC[C@]21C (stereo partly specified)	0.982
C=C[C@H]1CN2CC[C@H]1C[C@@H]2[C@@H](OC(=O)OCC)c1ccnc2ccc(OC)cc12	0.879
CCOCN(C(=O)CCl)c1c(C)cccc1CC	0.975
COc1ccc(-c2oc3c(CC=C(C)C)c(O[C@@H]4O[C@H](CO)[C@@H](O)[C@H](O)[C@H]4O)cc(O)c3c(=O)c2O[C@@H]2O[C@@H](C)[C@H](O)[C@@H](O)[C@H]2O)cc1	1
COc1ccc2ccc(=O)oc2c1	0.964
COc1cccc2c(C)cc(=O)[nH]c12	0.641
C=C(C)[C@H]1COc2cc3oc(=O)ccc3cc2O1	0.775
